Every entry's value here was drawn from PubChem BioAssay AID1963861.

# System: 885724-159-R-J1-PDC KRAS PDC multicell spheroid viability
# assay_name: Anticancer human tumor 885724-159-R-J1-PDC patient-derived pancreatic adenocarcinoma cell line growth inhibition [KRAS2]
# stated_conditions: second compound 3.16 µM; first compound 0.01 µM; stronger effect = lower value
Would you kindly list viability, T/C for each of these compounds?
Numbers only, in %.

compound	unit_of_measure	reported_value
CC(C)n1nc(-c2ccc3oc(N)nc3c2)c2c(N)ncnc21 + COc1cc2nc(C)nc(NC(C)c3cc(N)cc(C(F)(F)F)c3)c2cc1OC1CCOC1	%	49.1
CC(C)n1nc(-c2ccc3oc(N)nc3c2)c2c(N)ncnc21 + C=CC(=O)N1CCN(c2nc(=O)n(-c3c(C)ccnc3C(C)C)c3nc(-c4c(O)cccc4F)c(F)cc23)C(C)C1	%	51.5
CC1COCCN1c1cc(-c2ccnn2C)c2ccnc(-c3ccn[nH]3)c2n1 (stereo not given) + CNCc1ccccc1-c1csc(C(C)Nc2nc(C)nc3cc(OC)c(OC)cc23)c1	%	2.14
Cn1ncnc1[C@H]1c2n[nH]c(=O)c3cc(F)cc(c23)N[C@@H]1c1ccc(F)cc1 + CC1OCC2(CCN(c3cnc(Sc4ccnc(N)c4Cl)c(N)n3)CC2)C1N	%	67

As a next step, examine the compound that follows.
Response field viability, T/C (885724-159-R-J1-PDC KRAS PDC multicell spheroid viability) for item CC(C)n1nc(-c2ccc3oc(N)nc3c2)c2c(N)ncnc21 + CC1OCC2(CCN(c3cnc(Sc4ccnc(N)c4Cl)c(N)n3)CC2)C1N : 53.3

---

# Tested on: 885724-159-R-J1-PDC KRAS PDC multicell spheroid viability
# assay_name: Anticancer human tumor 885724-159-R-J1-PDC cell line growth inhibition [KRAS2];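 note: spheroids exposed to agents for 7 days before readout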
# stated_conditions: curve of first compound; second compound 1 µM
measured_metric: IC50

compound	measured_metric	reported_value
COc1cc(Nc2ncc3c(n2)-c2ccc(Cl)cc2C(c2c(F)cccc2OC)=NC3)ccc1C(=O)O + C=CC(=O)N1CCN(c2nc(=O)n(-c3c(C)ccnc3C(C)C)c3nc(-c4c(O)cccc4F)c(F)cc23)C(C)C1	IC50	> 10 µM

I would be grateful if you could provide IC50 for each of the following entries.
1. CC(=O)OC12COC1CC(O)C1(C)C(=O)C(O)C3=C(C)C(OC(=O)C(O)C(NC(=O)OC(C)(C)C)c4ccccc4)CC(O)(C(OC(=O)c4ccccc4)C21)C3(C)C (stereo not drawn) + COc1cc2nc(C)nc(NC(C)c3cc(N)cc(C(F)(F)F)c3)c2cc1OC1CCOC1
2. CC(=O)OC12COC1CC(O)C1(C)C(=O)C(O)C3=C(C)C(OC(=O)C(O)C(NC(=O)OC(C)(C)C)c4ccccc4)CC(O)(C(OC(=O)c4ccccc4)C21)C3(C)C (stereo not drawn) + C=CC(=O)N1CCN(c2nc(OCC3CCCN3C)nc3c2CCN(c2cccc4cccc(C)c24)C3)CC1CC#N

Output line:
> 3.16 µM
> 3.16 µM

---

# Tested on: 885724-159-R-J1-PDC KRAS PDC multicell spheroid viability
# assay_name: Anticancer human tumor 885724-159-R-J1-PDC cell line growth inhibition [KRAS2];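 note: spheroids exposed to agents for 7 days before readout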
# stated_conditions: second compound 10 µM; first compound 0.1 µM; stronger effect = lower value
Would you kindly list viability, T/C for each of these compounds?
Numbers only, in %.

Would you please look over these solved cases?
compound	test_system	unit_of_measure	viability, T/C
COc1cc(Nc2ncc3c(n2)-c2ccc(Cl)cc2C(c2c(F)cccc2OC)=NC3)ccc1C(=O)O + CNCc1ccccc1-c1csc(C(C)Nc2nc(C)nc3cc(OC)c(OC)cc23)c1	885724-159-R-J1-PDC KRAS PDC multicell spheroid viability	%	0.37
CC(C)NCC(C(=O)N1CCN(c2ncnc3c2C(C)CC3O)CC1)c1ccc(Cl)cc1 (centres undefined) + CNCc1ccccc1-c1csc(C(C)Nc2nc(C)nc3cc(OC)c(OC)cc23)c1	885724-159-R-J1-PDC KRAS PDC multicell spheroid viability	%	0.16

I would be grateful if you could provide viability, T/C for each of the following entries.
1. O=C(c1cc(Cc2n[nH]c(=O)c3ccccc23)ccc1F)N1CCN(C(=O)C2CC2)CC1 + CC1OCC2(CCN(c3cnc(Sc4ccnc(N)c4Cl)c(N)n3)CC2)C1N
2. COc1cc2nccc(Oc3ccc(NC(=O)C4(C(=O)Nc5ccc(F)cc5)CC4)cc3)c2cc1OC + CC1OCC2(CCN(c3cnc(Sc4ccnc(N)c4Cl)c(N)n3)CC2)C1N

Output line:
1: 87.4; 2: 62.9
